Can you tell me viability at 48 h, 25 µM for the items I'm about to list?
assay_overview: MTT viability assay in RPE cells
Assay type: cell-based, human
condition_details: human, retinal pigment epithelial (RPE) cells, 25 μM, read-out: percentage of RPE cell viability, 48 h
Please state the figure in %; there is no need to write the unit.

I would be grateful if you could share the reported viability at 48 h, 25 µM for Cn1c(/C=C/C(=O)c2ccc(NC(=O)OC(C)(C)C)cc2)ccc1C(=O)NO [Compound 17] .
91.9

I would be grateful if you could share the reported viability at 48 h, 25 µM for CC(C)(C)OC(=O)Nc1cccc(C(=O)/C=C/c2ccc(C(=O)NO)cc2)c1 [Compound 19] .
68.6

I would be grateful if you could share the reported viability at 48 h, 25 µM for CC(C)(C)OC(=O)Nc1ccc(C(=O)/C=C/c2ccc(/C=C/C(=O)NO)cc2)cc1 [Compound 20] .
59.5

I would be grateful if you could share the reported viability at 48 h, 25 µM for CC(C)(C)OC(=O)Nc1ccc(C(=O)/C=C/c2ccc(C(=O)NO)cc2)cc1 [Compound 18] .
50.3

I would be grateful if you could share the reported viability at 48 h, 25 µM for CC1=C(/C=C/C(C)=C/C=C/C(C)=C/C(=O)Nc2ccccc2N)C(C)(C)CCC1 [Compound 8] .
98.8

I would be grateful if you could share the reported viability at 48 h, 25 µM for CC(C)(C)OC(=O)Nc1cccc(C(=O)/C=C/c2ccc(/C=C/C(=O)NO)cc2)c1 [Compound 4] .
40.4

###

Can you tell me inhibition at 20 µM for the items I'm about to list?
System: L. amazonensis promastigotes
assay_overview: Resazurin reduction assay, L. amazonensis promastigotes
Type: cell-based
condition_details: Leishmania amazonensis; 20 μM; read-out: percentage of inhibition, L. amazonensis promastigotes
Please state the figure in %; there is no need to write the unit.

I would be grateful if you could share the reported inhibition at 20 µM for "O=C(/C=C/c1ccc(CSc2nc(Cl)cc(-c3ccccc3)n2)cc1)NO" .
83.3

I would be grateful if you could share the reported inhibition at 20 µM for "CN(C)Cc1ccc(S(=O)(=O)n2ccc3cc(/C=C/C(=O)NO)ccc32)cc1" .
60.1

I would be grateful if you could share the reported inhibition at 20 µM for "Cn1c(/C=C/C(=O)NO)ccc1/C=C/C(=O)c1cccc(Cl)c1" .
9.1

I would be grateful if you could share the reported inhibition at 20 µM for "O=C(CCCCSc1nc(-c2ccc(-c3ccccc3)cc2)cc(=O)[nH]1)NO" .
2.1

I would be grateful if you could share the reported inhibition at 20 µM for "CC(C)(C)OC(=O)Nc1cccc(C(=O)/C=C/c2ccc(/C=C/C(=O)NO)cc2)c1" .
97.9

###

Test system: L. donovani promastigotes
assay_overview: Resazurin reduction assay, L. donovani promastigotes
Type: cell-based
condition_details: Leishmania donovani; 20 μM; read-out: percentage of inhibition, L. donovani promastigotes
The threshold is inclusive: inhibition at 20 µM of exactly 70% counts as class 1; values below receive class 0.

Form field: inhibition at 20 µM at least 70%? Entry: "Cn1c(/C=C/C(=O)NO)ccc1/C=C/C(=O)c1cccc(Cl)c1"
class 0

Form field: inhibition at 20 µM at least 70%? Entry: "O=C(/C=C/c1ccc(CSc2nc(Cl)cc(-c3ccccc3)n2)cc1)NO"
class 1

Form field: inhibition at 20 µM at least 70%? Entry: "CN(C)Cc1ccc(S(=O)(=O)n2ccc3cc(/C=C/C(=O)NO)ccc32)cc1"
class 0

Form field: inhibition at 20 µM at least 70%? Entry: "CC(C)(C)OC(=O)Nc1cccc(C(=O)/C=C/c2ccc(/C=C/C(=O)NO)cc2)c1"
class 1

Form field: inhibition at 20 µM at least 70%? Entry: "CC1=C(/C=C/C(C)=C/C=C/C(C)=C/C(=O)Nc2ccccc2N)C(C)(C)CCC1"
class 0
